# system.under.test: Insulin-like growth factor 1 receptor (Homo sapiens) (UniProt P08069)
# Sequence (P08069 31-736 limits assumed): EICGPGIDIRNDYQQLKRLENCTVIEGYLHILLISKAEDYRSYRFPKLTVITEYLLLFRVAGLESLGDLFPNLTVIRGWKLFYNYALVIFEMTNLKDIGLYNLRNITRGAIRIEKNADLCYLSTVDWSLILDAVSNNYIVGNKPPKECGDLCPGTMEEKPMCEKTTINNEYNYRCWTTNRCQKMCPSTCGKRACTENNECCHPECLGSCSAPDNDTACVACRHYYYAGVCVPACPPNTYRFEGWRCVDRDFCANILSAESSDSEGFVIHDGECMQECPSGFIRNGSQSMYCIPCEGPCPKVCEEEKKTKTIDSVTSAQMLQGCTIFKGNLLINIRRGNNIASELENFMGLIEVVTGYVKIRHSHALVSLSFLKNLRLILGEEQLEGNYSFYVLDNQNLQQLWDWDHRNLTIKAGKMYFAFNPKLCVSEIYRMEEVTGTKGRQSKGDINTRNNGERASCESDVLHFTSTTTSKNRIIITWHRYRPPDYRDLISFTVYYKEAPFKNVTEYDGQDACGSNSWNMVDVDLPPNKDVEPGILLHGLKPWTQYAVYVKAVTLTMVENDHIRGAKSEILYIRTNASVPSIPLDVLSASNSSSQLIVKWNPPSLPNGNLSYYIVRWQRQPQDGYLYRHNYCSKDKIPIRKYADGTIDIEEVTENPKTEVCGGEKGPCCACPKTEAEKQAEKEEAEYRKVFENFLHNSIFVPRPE
# Sequence (P08069 741-1367 limits assumed): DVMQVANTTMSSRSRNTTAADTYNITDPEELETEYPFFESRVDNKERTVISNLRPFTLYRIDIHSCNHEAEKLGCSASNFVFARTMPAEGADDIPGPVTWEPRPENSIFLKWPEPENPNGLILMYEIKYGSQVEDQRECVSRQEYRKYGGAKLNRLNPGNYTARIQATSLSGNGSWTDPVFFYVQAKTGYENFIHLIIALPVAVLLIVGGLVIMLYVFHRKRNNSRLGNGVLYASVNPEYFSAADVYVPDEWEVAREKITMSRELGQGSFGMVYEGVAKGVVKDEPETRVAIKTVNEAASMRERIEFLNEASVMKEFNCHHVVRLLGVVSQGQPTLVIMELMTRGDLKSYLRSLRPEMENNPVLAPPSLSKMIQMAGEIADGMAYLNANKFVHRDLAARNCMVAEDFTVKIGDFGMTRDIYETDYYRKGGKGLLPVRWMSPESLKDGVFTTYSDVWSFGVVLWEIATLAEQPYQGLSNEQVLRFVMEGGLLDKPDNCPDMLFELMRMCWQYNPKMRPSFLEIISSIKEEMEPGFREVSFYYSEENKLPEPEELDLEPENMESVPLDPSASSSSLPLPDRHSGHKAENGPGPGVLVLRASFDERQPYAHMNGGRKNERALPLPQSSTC
# test.description: Inhibition of IGF1R at 10 uM by HTRF assay relative to control
assay.endpoint: inhibition (%)
Numbers only here, please. The scale is %.

These solved cases illustrate the format of a correct answer.
                        structure_as_smiles  observed_value
0  Cc1cccc(N(C)c2cc(Nc3cccc(C(=O)N(CC(C)C)CC(C)C)c3)ncn2)c1               0
1  Nc1nc(Nc2ccccc2)cc(N2CCC(C(=O)NCCc3ccccn3)CC2)n1               0
2  COc1cccc(Nc2cc(Nc3cccc(C(=O)N(C)CCc4ccccn4)c3)nc(N)n2)c1               0
3  COC[C@@H]1CCCN1C(=O)[C@@H]1CCCN1c1nccc(Nc2ccccc2)n1               0

Could you now look at the following compound, please?
Challenge: Please give the measured inhibition for this compound: `O=C(NC[C@@H]1CCCO1)c1cccc(Nc2nccc(Nc3ccc4ncsc4c3)n2)c1`
Response given: 83

----------
# system.under.test: UniProt:P05129
# test.description: Inhibition of PKCgamma at 10 uM by HTRF assay relative to control
assay.endpoint: inhibition (%)
Write the number in % without appending the unit.

Challenge: What does the record list as inhibition for `O=C(c1nc(SCc2ccc(Cl)cc2)n2ccccc12)N1CCN(c2ncnc3c2CN(Cc2ccccc2)CC3)CC1` ?
Response given: 4

----------
# system.under.test: Protein kinase C alpha type (Homo sapiens) (UniProt P17252)
# test.description: Inhibition of PKCalpha at 10 uM by HTRF assay relative to control
Entries annotated with measured inhibition
Write the answer as a number in %, unit excluded.

Some solved entries appear below for comparison.
In [3]: df
Out[3]:
                                   compound  output_unit  observed_value
0  COc1cccc(Nc2cc(N3CCC[C@H]3C(=O)NCCc3ccc(O)cc3)nc(N)n2)c1            %               0
1  Cc1cccc(Oc2ccnc(N3CCC[C@H]3C(=O)NCCCn3ccnc3)n2)c1            %               0

Challenge: Recorded inhibition of Cc1cccc(Nc2cc(Nc3cccc(C(=O)N(CC(C)O)CC(C)O)c3)ncn2)c1 (stereo not drawn) , please.
Response given: 1

Challenge: Give its inhibition value. Item: `CN(C)CC(C)(C)CNC(=O)C1CCN(c2cc(N3CCOCC3)nc(N)n2)CC1`
Response given: 0

Challenge: Which inhibition is listed for `O=C(COc1ccccc1)N1CCN(c2nccc(Nc3ccc4ncsc4c3)n2)CC1` ?
Response given: 0

Challenge: Please give the measured inhibition for this compound: `O=C(CN1CCN(c2ncnc3c2CN(Cc2ccccc2)CC3)CC1)Nc1cc(F)ccc1F`
Response given: 4

Challenge: Look up inhibition: `O=C(NCc1ccncc1)c1cccc(Nc2cc(Nc3cccc(Br)c3)ncn2)c1`
Response given: 2

Challenge: May I ask what inhibition has been recorded for `O=C(c1nc(SCc2ccc(Cl)cc2)n2ccccc12)N1CCN(c2ncnc3c2CN(Cc2ccccc2)CC3)CC1` ?
Response given: 0

Challenge: Look up inhibition: `Cc1cccc(N(C)c2cc(N3CCN(CC(=O)Nc4nc(-c5ccccc5)cs4)CC3)ncn2)c1`
Response given: 3

Challenge: So what does the record say about inhibition for COC(=O)C(CO)NC(=O)[C@@H]1CCCN1c1nccc(Oc2cccc(C)c2)n1 (stereo partly drawn) ?
Response given: 0

Challenge: Would you mind telling me what inhibition value was observed for `Cc1cccc(N(C)c2cc(Nc3cccc(C(=O)NCCCn4ccnc4)c3)ncn2)c1` ?
Response given: 7

Challenge: Request the reported inhibition associated with `O=C(NC1Cc2ccccc2C1)c1cccc(Nc2ccnc(N3CCN(c4ccccc4)CC3)n2)c1`
Response given: 0

----------
# system.under.test: Receptor-type tyrosine-protein kinase FLT3 (Homo sapiens) (UniProt P36888)
# Sequence (P36888 whole entry): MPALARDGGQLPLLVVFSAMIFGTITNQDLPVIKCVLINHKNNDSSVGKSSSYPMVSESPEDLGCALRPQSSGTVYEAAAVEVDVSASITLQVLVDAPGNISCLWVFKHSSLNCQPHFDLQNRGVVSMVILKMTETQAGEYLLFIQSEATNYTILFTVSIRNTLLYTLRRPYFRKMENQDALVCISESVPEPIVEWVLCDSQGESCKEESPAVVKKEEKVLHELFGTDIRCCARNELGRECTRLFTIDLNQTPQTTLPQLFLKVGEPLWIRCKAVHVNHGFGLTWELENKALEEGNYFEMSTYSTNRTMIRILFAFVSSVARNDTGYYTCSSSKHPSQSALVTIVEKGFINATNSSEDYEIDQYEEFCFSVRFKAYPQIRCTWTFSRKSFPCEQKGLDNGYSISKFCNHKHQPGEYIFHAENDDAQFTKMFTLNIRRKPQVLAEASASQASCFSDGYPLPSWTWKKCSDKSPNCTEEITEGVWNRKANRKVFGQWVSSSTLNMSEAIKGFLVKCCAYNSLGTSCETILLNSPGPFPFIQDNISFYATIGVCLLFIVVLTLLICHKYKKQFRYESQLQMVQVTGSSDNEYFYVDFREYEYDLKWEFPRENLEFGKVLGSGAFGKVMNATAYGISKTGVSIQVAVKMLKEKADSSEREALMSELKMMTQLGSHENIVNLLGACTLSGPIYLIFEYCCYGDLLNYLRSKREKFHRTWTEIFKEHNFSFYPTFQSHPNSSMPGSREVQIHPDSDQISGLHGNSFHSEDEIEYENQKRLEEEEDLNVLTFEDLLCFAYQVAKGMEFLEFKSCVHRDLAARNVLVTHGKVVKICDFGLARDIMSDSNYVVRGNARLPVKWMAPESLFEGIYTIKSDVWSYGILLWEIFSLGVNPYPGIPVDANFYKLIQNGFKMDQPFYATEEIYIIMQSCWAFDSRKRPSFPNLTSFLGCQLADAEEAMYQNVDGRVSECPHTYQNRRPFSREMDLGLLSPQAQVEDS
# test.description: Inhibition of FLT3 at 10 uM by HTRF assay relative to control
Measured inhibition, listed per entry.
Kindly answer with a numeric value in %, unit omitted.

Consider the following illustrative entries.
                        structure_as_smiles  assay_endpoint  observed_value
0  O=C(NCc1cccnc1)c1cccc(-c2ccc(Nc3ccc4ncsc4c3)nn2)c1      inhibition              98
1  Cc1cccc(Oc2ccnc(N3CCC[C@H]3C(=O)NCc3cccnc3)n2)c1      inhibition               0

Challenge: Receptor-type tyrosine-protein kinase FLT3 (Homo sapiens) (UniProt P36888) / inhibition / `Cc1cccc(N(C)c2cc(Nc3cccc(C(=O)NCCCn4ccnc4)c3)ncn2)c1` : value?
Response given: 15

Challenge: Query the reported inhibition for Receptor-type tyrosine-protein kinase FLT3 (Homo sapiens) (UniProt P36888); item: `Cc1cccc(N(C)c2cc(Nc3cccc(C(=O)NCc4ccncc4)c3)ncn2)c1`
Response given: 13

Challenge: Test system Receptor-type tyrosine-protein kinase FLT3 (Homo sapiens) (UniProt P36888); read-out inhibition; what value for `CN(C)c1ccc(C(=O)N2CCN(c3ncnc4c3CN(Cc3ccccc3)CC4)CC2)c2ccccc12` ?
Response given: 0

Challenge: # returns recorded inhibition (system: Receptor-type tyrosine-protein kinase FLT3 (Homo sapiens) (UniProt P36888)) for `COC[C@@H]1CCCN1C(=O)[C@@H]1CCCN1c1nccc(Nc2ccccc2)n1`
Response given: 0

Challenge: Write down the reported inhibition of `COc1ccc(-c2noc(CN3CCN(c4cc(Nc5cccc(O)c5)ncn4)CC3)n2)cc1` , test system: Receptor-type tyrosine-protein kinase FLT3 (Homo sapiens) (UniProt P36888).
Response given: 0

Challenge: Kindly state the measured inhibition obtained for `CC(=O)CCCCC(=O)N1CCN(c2nccc(Oc3cccc(C)c3)n2)CC1` with Receptor-type tyrosine-protein kinase FLT3 (Homo sapiens) (UniProt P36888).
Response given: 0

Challenge: Form field - read-out: inhibition; system: Receptor-type tyrosine-protein kinase FLT3 (Homo sapiens) (UniProt P36888); submitted item: `Cc1cccc(N(C)c2cc(N3CCN(CC(=O)Nc4nc(-c5ccccc5)cs4)CC3)ncn2)c1`
Response given: 0

----------
# system.under.test: Cyclin-dependent kinase 1 (Homo sapiens) (UniProt P06493)
# Sequence (P06493 whole entry, looked up): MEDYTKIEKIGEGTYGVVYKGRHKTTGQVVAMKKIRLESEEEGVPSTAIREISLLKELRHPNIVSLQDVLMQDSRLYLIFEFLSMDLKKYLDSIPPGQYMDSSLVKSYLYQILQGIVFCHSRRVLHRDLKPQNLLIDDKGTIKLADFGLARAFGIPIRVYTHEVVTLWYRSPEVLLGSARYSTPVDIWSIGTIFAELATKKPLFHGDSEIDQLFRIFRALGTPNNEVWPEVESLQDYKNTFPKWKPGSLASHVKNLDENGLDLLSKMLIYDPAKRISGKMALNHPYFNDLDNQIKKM
# test.description: Inhibition of CDK1 at 10 uM by HTRF assay relative to control
assay.endpoint: inhibition
The number alone won't do; follow it with the unit.

Solved cases below.
>>> df
                        structure_as_smiles  assay_endpoint  observed_value
0  Cc1cccc(N(C)c2cc(N3CCN(CC(=O)Nc4nc(-c5ccccc5)cs4)CC3)ncn2)c1      inhibition              0%
1  Nc1nc(N2CCOCC2)cc(N2CCC(C(=O)NCCc3ccc(O)cc3)CC2)n1      inhibition              0%
2  COc1cccc(Nc2cc(Nc3cccc(C(=O)NCCCn4ccnc4)c3)nc(N)n2)c1      inhibition              2%
3  Cc1cccc(N(C)c2cc(Nc3cccc(C(=O)N(C)CCc4ccccn4)c3)ncn2)c1      inhibition              0%

Challenge: Could you share which inhibition value was measured for `O=C(NCc1ccncc1)c1cccc(Nc2cc(Nc3cccc(Br)c3)ncn2)c1` ?
Response given: 1%

----------
# inhibition annotations
# system.under.test: Vascular endothelial growth factor receptor 2 (Homo sapiens) (UniProt P35968)
# Sequence (P35968 whole entry): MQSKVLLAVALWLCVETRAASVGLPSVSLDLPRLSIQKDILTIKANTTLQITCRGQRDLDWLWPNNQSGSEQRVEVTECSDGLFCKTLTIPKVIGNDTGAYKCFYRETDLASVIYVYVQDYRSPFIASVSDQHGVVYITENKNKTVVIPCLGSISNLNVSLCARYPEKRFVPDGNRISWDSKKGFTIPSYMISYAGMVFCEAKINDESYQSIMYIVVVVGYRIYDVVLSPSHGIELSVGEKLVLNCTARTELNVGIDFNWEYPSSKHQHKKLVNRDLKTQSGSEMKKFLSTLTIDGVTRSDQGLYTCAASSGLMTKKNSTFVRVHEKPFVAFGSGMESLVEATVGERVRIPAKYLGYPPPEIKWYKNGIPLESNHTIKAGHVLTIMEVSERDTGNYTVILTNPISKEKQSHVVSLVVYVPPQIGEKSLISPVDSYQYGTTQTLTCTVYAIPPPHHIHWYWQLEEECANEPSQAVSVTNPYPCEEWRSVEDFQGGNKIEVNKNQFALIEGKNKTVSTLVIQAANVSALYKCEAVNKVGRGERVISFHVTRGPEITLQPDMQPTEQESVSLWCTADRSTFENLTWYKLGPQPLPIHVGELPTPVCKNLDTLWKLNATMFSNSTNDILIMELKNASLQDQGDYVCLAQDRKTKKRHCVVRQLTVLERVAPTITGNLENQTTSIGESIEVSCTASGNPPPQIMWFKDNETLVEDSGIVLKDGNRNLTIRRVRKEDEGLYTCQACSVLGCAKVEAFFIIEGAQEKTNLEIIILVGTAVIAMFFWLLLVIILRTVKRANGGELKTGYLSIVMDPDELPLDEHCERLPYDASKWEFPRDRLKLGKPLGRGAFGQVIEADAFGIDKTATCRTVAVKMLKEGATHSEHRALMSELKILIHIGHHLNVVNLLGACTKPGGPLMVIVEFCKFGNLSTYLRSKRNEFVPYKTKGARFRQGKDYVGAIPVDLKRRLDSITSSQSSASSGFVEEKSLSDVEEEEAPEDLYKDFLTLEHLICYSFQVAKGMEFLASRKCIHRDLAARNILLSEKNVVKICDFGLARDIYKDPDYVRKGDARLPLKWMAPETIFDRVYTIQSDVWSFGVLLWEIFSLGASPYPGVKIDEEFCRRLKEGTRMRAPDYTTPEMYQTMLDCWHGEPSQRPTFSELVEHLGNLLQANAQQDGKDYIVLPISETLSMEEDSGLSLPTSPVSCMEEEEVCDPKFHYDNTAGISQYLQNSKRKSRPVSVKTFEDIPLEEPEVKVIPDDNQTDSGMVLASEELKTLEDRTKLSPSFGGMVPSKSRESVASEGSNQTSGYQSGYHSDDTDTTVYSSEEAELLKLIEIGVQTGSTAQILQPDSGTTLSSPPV
# test.description: Inhibition of KDR at 10 uM by HTRF assay relative to control
# number only, unit % dropped from output

Consider the following illustrative entries.
                        structure_as_smiles  observed_value
0  COC[C@@H]1CCCN1C(=O)[C@@H]1CCCN1c1cc(Nc2cccc(OC)c2)nc(N)n1               4
1  Nc1nc(N2CCOCC2)cc(N2CCC(C(=O)NCc3cccs3)CC2)n1              17
2  Cc1cccc(N(C)c2cc(Nc3cccc(C(=O)N(C)CCc4ccccn4)c3)ncn2)c1              31

# evaluate next
Challenge: Report inhibition for `Cc1cccc(N(C)c2cc(N3CCN(CC(=O)Nc4nc(-c5ccccc5)cs4)CC3)ncn2)c1` please.
Response given: 9

----------
# system.under.test: Cyclin-dependent kinase 1 (Homo sapiens)
# test.description: Inhibition of CDK1 at 10 uM by HTRF assay relative to control
assay.endpoint: inhibition (%)
Supply the numeric figure in %, leaving out any unit text.

Would you please look over these solved cases?
In [3]: df
Out[3]:
                        structure_as_smiles  observed_value
0  Cc1cccc(CN2CCN(c3cc(N(C)c4cccc(C)c4)ncn3)CC2)c1               0
1  O=C(COc1ccccc1)N1CCN(c2nccc(Nc3ccc4ncsc4c3)n2)CC1               0

Challenge: Recorded inhibition of `O=C(NCCc1ccc(O)cc1)c1cccc(Nc2nccc(Nc3ccc4ncsc4c3)n2)c1` , please.
Response given: 0

Challenge: Would you kindly share the measured inhibition for `COc1ccc(-c2noc(CN3CCN(c4cc(Nc5cccc(O)c5)ncn4)CC3)n2)cc1` ?
Response given: 0

Challenge: Quick check: inhibition of `Nc1nc(Nc2ccc(C(=O)NCCc3ccncc3)cc2)cc(N2CCOCC2)n1` ?
Response given: 0

Challenge: # input compound: `Cc1cccc(N(C)c2cc(Nc3cccc(C(=O)NCCCn4ccnc4)c3)ncn2)c1` ; wanted: its inhibition
Response given: 0
